The entries below are paired with their reported cell viability (log2).
# System: A673/TR/shEF
# measurement.notes: cell viability (LOESS-normalised, relative to median of negative controls) (log2 ratio); higher = more viable cells (less compound effect), active = hit call of the paper (over 3 MAD below the median)
# conditions.used: 0.25 µM; library screen: screen2; EWS-FLI1 expression: low (doxycycline-induced shRNA knockdown); treatment time: 72 h
Hit rate of the full screen: of about 3,200 compounds, about 300 (9.4%) showed activity. The sample holds actives, similar compounds and a random draw of the others, so the mix is not that of the screen.
property: cell viability (log2)

Cn1cnc([N+](=O)[O-])c1Sc1ncnc2nc[nH]c12; 0.0607
Cn1cnc2c(NCc3ccccc3)nc(NCCO)nc21; 0.106
CCCCCCCCCCCCCCC[C@@H](O)[C@H](CO)NC(C)=O; 0.139
NC[C@@H]1O[C@H](O[C@@H]2[C@@H](CO)OC(O[C@H]3C(O[C@H]4O[C@H](CO)[C@@H](O)[C@H](O)[C@H]4N)[C@@H](N)C[C@@H](N)[C@@H]3O)[C@@H]2O)[C@H](N)[C@@H](O)[C@@H]1O (stereo partly drawn); 0.0601
NC(=S)c1ccc[n+]([C@@H]2O[C@H](COP(=O)(O)OP(=O)(O)OC[C@H]3O[C@@H](n4cnc5c(N)ncnc54)[C@H](OP(=O)(O)O)[C@@H]3O)[C@@H](O)[C@H]2[O-])c1; 0.145
CC(C)NC[C@H](O)COc1cccc2ccccc12; 0.0581
COc1ccc(Cl)cc1C(=O)NCCc1ccc(S(=O)(=O)NC(=O)NC2CCCCC2)cc1; 0.0382
CC(C)NCC(O)COc1cccc2ccccc12 (stereo not drawn); 0.128
CC(C)n1cnc2c(NCc3ccccc3)nc(NCCO)nc21; 0.0704
C=CCc1ccccc1OCC(O)CNC(C)C (stereo not drawn); 0.0871
CC(/C=C/C=C(\C)c1cc(C(C)(C)C)cc(C(C)(C)C)c1)=C\C(=O)O; 0.0751
CC[C@H](CO)Nc1nc(NCc2ccccc2)c2ncn(C(C)C)c2n1; 0.0581
C/C=C/CC(C)C(O)C1C(=O)NC(CC)C(=O)N(C)CC(=O)N(C)C(CC(C)C)C(=O)NC(C(C)C)C(=O)N(C)C(CC(C)C)C(=O)NC(C)C(=O)NC(C)C(=O)N(C)C(CC(C)C)C(=O)N(C)C(CC(C)C)C(=O)N(C)C(C(C)C)C(=O)N1C (stereo not drawn); 0.127
CCOC([O-])=Nc1c[n+](N2CCOCC2)no1; 0.0663
COc1cc(OC)cc(C(CNc2ncnc3c2ncn3C2O[C@H](CO)[C@@H](O)[C@H]2O)c2ccccc2C)c1 (stereo partly drawn); 0.0311
C[C@]12CC[C@@H]3c4ccc(O)cc4CC[C@H]3[C@@H]1CC[C@@H]2O; 0.0497
COc1cc2c(cc1O)CC[C@@H]1[C@@H]2CC[C@]2(C)[C@@H](O)CC[C@@H]12; 0.04
CN1/C(=C(\O)Nc2ccccn2)C(=O)c2ccccc2S1(=O)=O; 0.0798

---

The entries below are paired with their reported cell viability (log2).
# Test system: A673/TR/shEF
# measurement.notes: cell viability (LOESS-normalised, relative to median of negative controls) (log2 ratio); higher = more viable cells (less compound effect), active = hit call of the paper (over 3 MAD below the median)
# conditions.used: 0.25 µM; library screen: screen1; EWS-FLI1 expression: high (no doxycycline); treatment time: 72 h
Screen size: about 3,200 compounds; about 300 (9.4%) showed activity. This is one part of a sample in which actives are shown more often than they occur.
property: cell viability (log2)

COc1ccc(OC)c(CN2CCN(Cc3cccnc3)CC2)c1; 0.114
CC(=O)O[C@@H]1CC2C(C)(C)CCC(=O)[C@]2(C)C2CC[C@@]3(C)[C@H](c4ccoc4)OC(=O)C4OC43[C@@]21C (stereo not given in full); 0.0305
CCN(CC)c1ccc(C2C(C(=O)OC)=C(C)NC(C)=C2C(=O)OC)cc1; 0.121
NCCCCCC(=O)O; 0.0812
NCCCCC(=O)O; 0.172
Oc1ccc([C@H]2Oc3cc(O)cc(O)c3C[C@H]2O)cc1; 0.0303
Cc1cc(OC(=O)c2c(C)cc(OC(=O)c3c(C)cc(O)cc3O)cc2O)cc(O)c1C(=O)O; 0.154
CC1=C2C(=CO[C@H](C)[C@H]2C)C(=O)C(C(=O)O)=C1O; 0.0243
COC(=O)C[C@H]1C(C)(C)C(OC)=C2CC3=C4CC(=O)O[C@@H](c5ccoc5)[C@]4(C)CCC3[C@@]1(C)C2=O (stereo not given in full); 0.0817
C=C1c2cc(OC)ccc2NC(=O)N1c1ccccc1; 0.0622

---

# System: A673/TR/shEF
# measurement.notes: cell viability (LOESS-normalised, relative to median of negative controls) (log2 ratio); higher = more viable cells (less compound effect), active = hit call of the paper (over 3 MAD below the median)
# conditions.used: 2.5 µM; library screen: screen2; EWS-FLI1 expression: low (doxycycline-induced shRNA knockdown); treatment time: 72 h
Hit rate of the full screen: of about 3,200 compounds, about 300 (9.4%) showed activity. The sample holds actives, similar compounds and a random draw of the others, so the mix is not that of the screen.
property: cell viability (log2)

CN([C@@H](Cc1ccc(OS(=O)(=O)c2cccc3cnccc23)cc1)C(=O)N1CCN(c2ccccc2)CC1)S(=O)(=O)c1cccc2cnccc12; -0.012
N#CC(=C(/N)Sc1ccccc1N)/C(C#N)=C(\N)Sc1ccccc1N; -0.0332
O=C(N[C@@H](Cc1ccccc1)C(=O)CCl)OCc1ccccc1; 0.0216
NCCNC(=O)Cc1ccc(NC(=O)Cc2ccc(Nc3ncnc4c3ncn4C3OC(CO)C(O)C3O)cc2)cc1 (stereo unspecified); 0.0423
NNCCc1ccccc1; -0.392
O=c1[nH]cc(F)c(=O)[nH]1; 0.00707
CCCCCCCCCCCCCCCC(=O)NCCO; 0.0396
Nc1ccn([C@@H]2O[C@H](CO)[C@@H](O)[C@@H]2O)c(=O)n1; -0.0511
O=C(Nc1cccc(C(=O)Nc2ccc(S(=O)(=O)O)c3cc(S(=O)(=O)O)cc(S(=O)(=O)O)c23)c1)Nc1cccc(C(=O)Nc2ccc(S(=O)(=O)O)c3cc(S(=O)(=O)O)cc(S(=O)(=O)O)c23)c1; 0.0855
O=C(Nc1cc(C(=O)Nc2ccc(S(=O)(=O)O)c(S(=O)(=O)O)c2)cc(C(=O)Nc2ccc(S(=O)(=O)O)c(S(=O)(=O)O)c2)c1)Nc1cc(C(=O)Nc2ccc(S(=O)(=O)O)c(S(=O)(=O)O)c2)cc(C(=O)Nc2ccc(S(=O)(=O)O)c(S(=O)(=O)O)c2)c1; 0.125
CNc1ncnc2c1ncn2[C@@H]1O[C@H](CO)[C@@H](O)[C@H]1O; 0.098
CCC1(O)CC2CN(CCc3c([nH]c4ccccc34)[C@@](C(=O)OC)(c3cc4c(cc3OC)N(C)C3[C@]45CCN4CC=C[C@@](CC)([C@@H](OC(C)=O)[C@]3(O)C(=O)OC)[C@H]45)C2)C1 (stereo partly specified); -0.537
CC(C)[C@H](NC(=O)OCc1ccccc1)C(=O)N[C@H](C=O)Cc1ccccc1; 0.155
C[N+](C)(C)CCC(=O)c1cccc2ccccc12; -0.0126
Cc1ccc2c(c1)C(N1CCN(C)CC1)=Nc1cccnc1N2; 0.0355
Nc1ncnc2c1ncn2C1CCCC1; 0.101
CC[C@]1(O)C[C@H]2CN(CCc3c([nH]c4ccccc34)[C@@](C(=O)OC)(c3cc4c(cc3OC)N(C=O)[C@H]3[C@@](O)(C(=O)OC)[C@H](OC(C)=O)[C@]5(CC)C=CCN6CC[C@]43[C@@H]65)C2)C1; -0.517
Nc1ncnc2c1ncn2[C@@H]1O[C@H](CO)[C@@H](O)[C@H]1O; 0.177
OCC(O)C1NCC(O)C1O (stereo unspecified); 0.0189
NC(=O)c1ncn([C@@H]2O[C@H](CO)[C@@H](O)[C@H]2O)c1O; 0.0404
O=C(O)C1CN(CCCP(=O)(O)O)CCN1 (stereo unspecified); 0.109
CCC(=O)NCC1OC(n2cnc3c(NCc4ccccc4)ncnc32)C(O)C1O (stereo unspecified); 0.113
NC1(C(=O)O)CCc2cc(C(=O)O)ccc21 (stereo unspecified); 0.107
CN[C@H](Cc1ccccc1)C(=O)N1CCC[C@H]1C(=O)N[C@@H](Cc1c[nH]c2ccccc12)C(=O)C(F)(F)C(F)(F)F; 0.0322
CC1CN(S(=O)(=O)c2cccc3cnccc23)CCN1 (stereo unspecified); 0.111
c1ccc([C@H]2CN3CCSC3=N2)cc1; 0.0627
NC[C@H](O)c1ccc(O)c(O)c1; 0.101
CCN(CC)CCNC(=O)c1cc(S(C)(=O)=O)ccc1OC; 0.0888
O=C(c1ccc(F)cc1)C1CCN(CCn2c(=O)[nH]c3ccccc3c2=O)CC1; -2.83
CN(C)C(=O)/N=N/C(=O)N(C)C; 0.117
CO[C@H]1C=CC2CCN3CCC4=C(CC(=O)OC4)[C@]23C1 (stereo partly specified); 0.152
CCCCCCCCCCCCCCC[C@H](O)[C@H](N)CO; 0.102
CCCCCCCC/C=C/CCCCCCCC(=O)OC(CO)COC(=O)CCCCCCCCCCCCCCC (stereo unspecified); 0.152
COc1c(C)c2c(c(O)c1C/C=C(\C)CCC(=O)O)C(=O)OC2; -0.00198
C/C(=C\c1ccc(C(=O)O)cc1)c1ccc2c(c1)C(C)(C)CCC2(C)C; 0.0889
Nc1ncnc2c1ncn2C1CCCO1 (stereo unspecified); -0.568
Nc1ncn([C@@H]2O[C@H](CO)[C@@H](O)[C@H]2O)c(=O)n1; 0.0803
OC1C=CC(Br)C(O)C1O (stereo unspecified); 0.0803
CC1(NCC(O)COc2cccc3[nH]ccc23)CCC(C(C)(C)NC(=O)CBr)CC1 (stereo unspecified); 0.0182
Nc1nccc2c1ncn2[C@@H]1O[C@H](CO)[C@@H](O)[C@H]1O; 0.125
c1ccc(C2CN3CCSC3=N2)cc1 (stereo unspecified); 0.00181
